assay info: total protein half-life in vivo (active degradation + dilution); higher = more stable protein
reported conditions: wild type E. coli NCM3722; growth: C-lim chemostat; doubling time 12 h
Could you please report measured total protein half-life in vivo for the items listed next?
One number for each entry, in h.

Worked examples, 3 sequences total:
- ordered residues: "MSDMHSLLIAAILGVVEGLTEFLPVSSTGHMIIVGHLLGFEGDTAKTFEVVIQLGSILAVVVMFWRRLFGLIGIHFGRPLQHEGESKGRLTLIHILLGMIPAVVLGLLFHDTIKSLFNPINVMYALVVGGLLLIAAECLKPKEPRAPGLDDMTYRQAFMIGCFQCLALWPGFSRSGATISGGMLMGVSRYAASEFSFLLAVPMMMGATALDLYKSWGFLTSGDIPMFAVGFITAFVVALIAIKTFLQLIKRISFIPFAIYRFIVAAAVYVVFF"
  total protein half-life in vivo [h]: 11.9
- ordered residues: "MVSSFTSAPRSGFYYFAQGWKLVSQPGIRRFVILPLLVNILLMGGAFWWLFTQLDVWIPTLMSYVPDWLQWLSYLLWPLAVISVLLVFGYFFSTIANWIAAPFNGLLAEQLEARLTGATPPDTGIFGIMKDVPRIMKREWQKFAWYLPRAIVLLILYFIPGIGQTVAPVLWFLFSAWMLAIQYCDYPFDNHKVPFKEMRTALRTRKITNMQFGALTSLFTMIPLLNLFIMPVAVCGATAMWVDCYRDKHAMWR [P0A6J3]"
  total protein half-life in vivo [h]: 12.3
- ordered residues: "MPSTPEEKKKVLTRVRRIRGQIDALERSLEGDAECRAILQQIAAVRGAANGLMAEVLESHIRETFDRNDCYSREVSQSVDDTIELVRAYLK [P0AAP3]"
  total protein half-life in vivo [h]: 8.3

# batch size: 4; output total protein half-life in vivo per entry
1. MKIISKMLVGALALAVTNVYAAELMTKAEFEKVESQYEKIGDISTSNEMSTADAKEDLIKKADEKGADVLVLTSGQTDNKIHGTANIYKKK
2. MAQLYFYYSAMNAGKSTALLQSSYNYQERGMRTVVYTAEIDDRFGAGKVSSRIGLSSPAKLFNQNSSLFDEIRAEHEQQAIHCVLVDECQFLTRQQVYELSEVVDQLDIPVLCYGLRTDFRGELFIGSQYLLAWSDKLVELKTICFCGRKASMVLRLDQAGRPYNEGEQVVIGGNERYVSVCRKHYKEALQVDSLTAIQERHRHD
3. MSEQLTDQVLVERVQKGDQKAFNLLVVRYQHKVASLVSRYVPSGDVPDVVQEAFIKAYRALDSFRGDSAFYTWLYRIAVNTAKNYLVAQGRRPPSSDVDAIEAENFESGGALKEISNPENLMLSEELRQIVFRTIESLPEDLRMAITLRELDGLSYEEIAAIMDCPVGTVRSRIFRAREAIDNKVQPLIRR [P0AGB6]
4. MWKRLLIVSAVSAAMSSMALAAPLTVGFSQVGSESGWRAAETNVAKSEAEKRGITLKIADGQQKQENQIKAVRSFVAQGVDAIFIAPVVATGWEPVLKEAKDAEIPVFLLDRSIDVKDKSLYMTTVTADNILEGKLIGDWLVKEVNGKPCNVVELQGTVGASVAIDRKKGFAEAIKNAPNIKIIRSQSGDFTRSKGKEVMESFIKAENNGKNICMVYAHNDDMVIGAIQAIKEAGLKPGKDILTGSIDGVPDIYKAMMDGEANASVELTPNMAGPAFDALEKYKKDGTMPEKLTLTKSTLYLPDTAKEELEKKKNMGY

[reply]
[5.78, 10.3, 11.8, 12]

This collection of values is drawn from the supplement of paper PMC11246515.
